These entries and their values trace back to PubChem BioAssay (NCI).

# Tested on: A498 renal
# procedure summary: NCI tumour cell line growth inhibition, 48 h
reported property: GI50

- molecule: "COc1cnc2c(c1)C(=O)c1c-2n(CCCN2CCC(O)CC2)c(=O)c2cc(Cl)ccc12"
  target or test system: "A498 renal"
  GI50: "704 nM"

Sample CCCCCCCCCCCCCC[n+]1ccc(C)cc1 — what was its GI50?
2930 nM

What do you have for CN(CCCCCl)P(=O)(OCc1ccc([N+](=O)[O-])o1)OCC1OC(n2cnc([N+](=O)[O-])c2N)C(O)C1O (stereo unspecified) ?
> 100000 nM

What do you have for CCSC[C@@H]1C[C@](O)(c2ccc(F)cc2)[C@@H](c2ccc(F)cc2)O1 ?
19000 nM

What do you have for COc1ccc(-c2c3c(nc4n[nH]c(-c5ccc(Cl)cc5)c24)-c2ccccc2C(=O)C3=O)cc1 ?
3720 nM

What do you have for Cc1ccc(-n2nnnc2-c2cnc(N3CCOCC3)nc2-c2cccc(C(F)(F)F)c2)cc1 ?
2710 nM

###

# Tested on: NCI/ADR-RES ovarian
# procedure summary: NCI tumour cell line growth inhibition, 48 h
Listing of recorded TGI by entry.

Known results for compounds:
- compound: "O=C1CSC(c2cccc(Cl)c2)N1c1ccc(-c2ccc(-n3c(-c4ccccc4)nc4ccccc4c3=O)cc2)cc1 (configuration not stated)"
  TGI: "> 100 µM"
- compound: "CCSC[C@@H]1C[C@](O)(c2ccc(F)cc2)[C@@H](c2ccc(F)cc2)O1"
  TGI: "51 µM"
- compound: "COc1c(N2CCN(CN3C(=O)C(=O)c4cc(Cl)ccc43)C(C)C2)c(F)cc2c(=O)c(C(=O)O)cn(C3CC3)c12 (configuration not stated)"
  TGI: "> 100 µM"
- compound: "Cc1nc2ccccc2nc1N=Nc1ccccc1"
  TGI: "57.6 µM"

Sample CC(=O)Nc1n[n+]([O-])c2cc(C)ccc2[n+]1[O-] — what was its TGI?
> 44.7 µM

What do you have for CC1(C)OC2OC(C(COS(=O)(=O)C(F)(F)F)N=[N+]=[N-])C(OC(=O)c3ccccc3)C2O1 (configuration not stated) ?
> 100 µM

###

# Tested on: HCC-2998 colon
# procedure summary: NCI tumour cell line growth inhibition, 48 h
Listing of recorded TGI by entry.

Known results for compounds:
- compound: "CC1(C)O[C@@H]2C[C@H]3[C@@H]4C[C@H](F)C5=CC(=O)C=C[C@]5(C)[C@@]4(F)[C@@H](O)C[C@]3(C)[C@]2(C(=O)CO)O1"
  target or test system: "HCC-2998 colon"
  TGI: "> 100 µM"
- compound: "O=C(/C=C(\\C(=O)c1cccs1)c1cccs1)c1ccc(C(=O)/C=C(\\C(=O)c2cccs2)c2cccs2)cc1"
  target or test system: "HCC-2998 colon"
  TGI: "> 100 µM"
- compound: "NC(=O)CC(N=Cc1nc(-c2ccccc2)oc1O)C(=O)O (stereo not given)"
  target or test system: "HCC-2998 colon"
  TGI: "> 100 µM"
- compound: "CC(C)=CC[C@]12CCN(C)[C@H]1N(S(=O)(=O)c1ccccc1)c1ccccc12"
  target or test system: "HCC-2998 colon"
  TGI: "> 61.4 µM"
- compound: "CCCCNc1ccc(Nc2ccccc2)cc1"
  target or test system: "HCC-2998 colon"
  TGI: "> 100 µM"

Sample CNc1ncnc2c1nc(NC1CCCC1)n2C1OC(CO)C(O)C1O (stereo not given) — what was its TGI?
> 100 µM

What do you have for COc1cc2ccnc3c(=C(SC)SC)c(=O)c(c1OC)c23 ?
32.6 µM

What do you have for CC(=O)NC1=NC(=O)/C(=C/c2ccc(/C=C3/C(=O)N=C(NC(C)=O)N3C)cc2)N1C ?
> 100 µM

What do you have for O=C(O)[C@H](CCC[C@H]1C(=O)O[C@H](c2ccccc2)[C@H](c2ccccc2)N1C(=O)OCc1ccccc1)N[C@@H](c1ccccc1)[C@H](O)c1ccccc1 ?
44 µM

What do you have for COc1cc(OC)c2c(c1)OC(c1cccnc1)C(c1ccccc1)C2=O (stereo not given) ?
> 100 µM

What do you have for N/C1=C/C(=O)NC(=O)c2c(c3ccccc3oc2=O)C1 ?
> 100 µM

What do you have for COc1nc2ccc(COc3ccc(C(=O)O)cc3)cc2nc1OC ?
> 100 µM

What do you have for COc1ccccc1C1(c2c(OC)c(=O)c2=O)SCCCS1 ?
> 100 µM

What do you have for CCc1c(-c2ccc(OC)cc2)oc(OC)c(C)c1=O ?
> 100 µM

What do you have for COc1ccc(CCN2CCC(CN(C)Cc3cnn(-c4ccccc4)c3)CC2)cc1 ?
18.1 µM
